The values you see were collected from the supplement of paper PMC8253809.

- Tested on: DIPGX9 (diffuse intrinsic pontine glioma line)
- ASSAY SUMMARY: growth inhibition (% activity, log2 RLU normalised to DMSO / staurosporine); higher = more growth inhibition
- CONDITION CONTEXT: 33 µM
Recorded growth inhibition for the following compounds
Please reply with the bare figure in % and do not write the unit itself.

>>> quantitative_readout("N#Cc1ccc(C(c2ccc(C#N)cc2)n2cncn2)cc1")
-0.262
>>> quantitative_readout("CC1(C)O[C@@H]2[C@@H](CO[C@@]3(COS(N)(=O)=O)OC(C)(C)O[C@@H]23)O1")
-2.57
>>> quantitative_readout("COc1cc(OC)c(C(=O)CCCN2CCCC2)c(OC)c1")
0.123
>>> quantitative_readout("Clc1ccc(C(Cn2ccnc2)OCc2ccc(Sc3ccccc3)cc2)c(Cl)c1 (centres undefined)")
4.7
>>> quantitative_readout("C=CCNC(N)=S")
-0.168
>>> quantitative_readout("CO/N=C(\\C(=O)N[C@@H]1C(=O)N2C(C(=O)OCOC(=O)C(C)(C)C)=C(/C=C\\c3scnc3C)CS[C@H]12)c1csc(N)n1")
-1.35
>>> quantitative_readout("C[C@H]1C[C@@H]2[C@H]([C@@H](O)C[C@@]3(C)[C@H]2CC[C@]3(O)C(=O)CO)[C@@]2(C)C=CC(=O)C=C12")
2.66
>>> quantitative_readout("Oc1ccc(OC2CCCCO2)cc1 (centres undefined)")
1.43

Now for another entry.
Q: So what does the record say about growth inhibition for CCCCCOC(=O)Nc1nc(=O)n([C@@H]2O[C@H](C)[C@@H](O)[C@H]2O)cc1F ?
Result: 0.193
